List of Ki values.
TESTED TARGET: Human recombinant cathepsin K (Homo sapiens)
Sequence (P43235 115-329): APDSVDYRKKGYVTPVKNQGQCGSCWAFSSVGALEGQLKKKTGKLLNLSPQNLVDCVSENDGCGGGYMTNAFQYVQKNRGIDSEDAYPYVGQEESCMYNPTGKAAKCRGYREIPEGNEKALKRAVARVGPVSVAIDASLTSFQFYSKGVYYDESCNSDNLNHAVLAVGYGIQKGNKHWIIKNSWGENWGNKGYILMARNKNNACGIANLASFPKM
ASSAY REMARKS: In vitro cathepsin Ki inhibition measurement, cathepsin K
Type: biochemical
TEST CONDITIONS: human cathepsin K, steady-state, competitive model; read-out: In vitro Ki (nM) vs Cath K
Procedure: Stock solutions of substrate or inhibitor were made up to 10 mM in 100% dimethylsulfoxide (DMSO) (Rathburns, Glasgow, U.K.) and diluted as appropriately required. […] The equilibrium inhibition constants (Ki^ss) for each compound were measured under steady-state conditions monitoring enzyme activity as a function of inhibitor concentration. […] The apparent inhibition constant (Ki) for each compound was determined on the basis that inhibition was reversible and occurred by a pure-competitive mechanism. […]
Answer with the figure and its unit, nothing else.

STRUCTURE: O=C(N[C@H](C(=O)N1C[C@H](Cl)[C@H]2OCC(=O)[C@H]21)C1CCCCC1)c1ccccc1
READOUT VALUE: 35 nM
//
STRUCTURE: O=C(N[C@H](C(=O)N1C[C@H](F)[C@H]2OCC(=O)[C@H]21)C1CCCCC1)c1cccc(-n2cnnn2)c1
READOUT VALUE: 340 nM
//
STRUCTURE: O=C(N[C@H](C(=O)N1C[C@@H](Cl)[C@H]2OCC(=O)[C@H]21)C1CCCCC1)c1cccc(-n2ccnc2)c1
READOUT VALUE: 230 nM

Next compound, Ki to be filled in.
Enquiry: What value of measured Ki is listed for `O=C(N[C@H](C(=O)N1CC[C@H]2OCC(=O)[C@H]21)C1CCCCC1)c1cccc(-n2cnnn2)c1` ?
Return: 560 nM

These data points were gathered from patent US8008290B2.
